Test system: HBV viral production from HepAD38 cells
Assay: Activity of test compounds on viral production from HepAD38 cells (viral load by qPCR of HBV core sequence in supernatant)
Format: cell-based
Settings: Hepatitis B virus, 120 h, 5 days incubation, HBV DNA in supernatant by qPCR, top concentration 10 μM, read-out: Viral Load EC50 Activity range
Measured EC50 values are reported for all entries that follow.

molecule | EC50
CN1C(C(=O)Nc2ccc(F)c(Cl)c2)CC(c2ccc(OC(F)F)cc2)NS1(=O)=O (racemic) | < 1000 nM
CN1C(C(=O)Nc2ccc(F)cc2)CC(c2cccs2)NS1(=O)=O (racemic) | < 1000 nM
N#CCN1[C@H](C(=O)Nc2ccc(F)c(Cl)c2)C[C@H](c2nccs2)NS1(=O)=O | 1000 to 5000 nM
CN1[C@H](C(=O)Nc2ccc(F)c(Br)c2)C[C@H](c2cccs2)NS1(=O)=O | < 1000 nM
C=CCN1[C@@H](C(=O)Nc2ccc(F)c(Cl)c2)C[C@@H](c2nccs2)NS1(=O)=O | > 5000 nM
CN1C(C(=O)Nc2ccc(F)c(Cl)c2)CC(c2ncc(-c3cnn(C)c3)s2)NS1(=O)=O (racemic) | < 1000 nM
CN1C(C(=O)Nc2ccc(F)c(Cl)c2)CC(c2nc(Br)cs2)NS1(=O)=O (racemic) | < 1000 nM
CN1[C@@H](C(=O)Nc2ccc(F)c(Cl)c2)C[C@@H](c2cc(-c3cncs3)cs2)NS1(=O)=O | 1000 to 5000 nM
CN1[C@H](C(=O)Nc2ccc(F)c(Cl)c2)C[C@H](c2ccc(Br)s2)NS1(=O)=O | < 1000 nM
O=C(Nc1ccc(F)c(Cl)c1)C1CC(c2nccs2)NS(=O)(=O)N1CCOC(F)(F)F (racemic) | < 1000 nM
CN1C(C(=O)Nc2cccc(Cl)c2)CC(c2cccs2)NS1(=O)=O (racemic) | < 1000 nM
CN1C(C(=O)Nc2ccc(F)c(Cl)c2)CC(c2cc(Cl)c(Br)s2)NS1(=O)=O (stereo not drawn) | < 1000 nM
COC(=O)c1ccc(C2CC(C(=O)Nc3ccc(F)c(Cl)c3)N(C)S(=O)(=O)N2)cc1 (stereo not drawn) | 1000 to 5000 nM
CN1[C@H](C(=O)Nc2cc(Br)cc(Br)c2)C[C@H](c2cccs2)NS1(=O)=O | < 1000 nM
CN1C(C(=O)Nc2ccc(F)c(Cl)c2)CC(c2ccc(-c3cccnc3)s2)NS1(=O)=O (racemic) | < 1000 nM

---

System: HBV viral production from HepAD38 cells
Test: Activity of test compounds on viral production from HepAD38 cells (viral load by qPCR of HBV core sequence in supernatant)
Type: cell-based
Conditions: Hepatitis B virus, 120 h, 5 days incubation, HBV DNA in supernatant by qPCR, top concentration 10 μM, read-out: Viral Load EC50 Activity range
Examples of molecules with documented EC50 follow.

molecule | EC50
[2H]C1[C@]([2H])(C(=O)Nc2ccc(F)c(Cl)c2)N(C([2H])([2H])[2H])S(=O)(=O)N[C@]1([2H])c1ccc(-c2cnn(C([2H])([2H])[2H])c2)s1 (stereo in doubt) | < 1000 nM
O=C(Nc1ccc(F)c(Cl)c1)C1CC(c2nccs2)NS(=O)(=O)N1CCOCc1ccccc1 (racemic) | 1000 to 5000 nM
CN1[C@@H](C(=O)Nc2ccc(F)c(Cl)c2)C[C@@H](c2cc(-c3cnn(C)c3)c(Cl)s2)NS1(=O)=O | > 5000 nM
CN1C(C(=O)Nc2ccc(F)c(Cl)c2)CC(c2ccc(-c3ccc(F)cc3)s2)NS1(=O)=O (stereo not drawn) | < 1000 nM
CN1[C@H](C(=O)Nc2ccc(F)c(Cl)c2)C[C@@H](c2ccc(Br)s2)NS1(=O)=O [HBV-CSU-114-Trans-ISO-II] | 1000 to 5000 nM
CN1[C@H](C(=O)Nc2ccc(F)c(Cl)c2)C[C@H](c2cc(-c3cnn(C(F)(F)F)c3)cs2)NS1(=O)=O | < 1000 nM

Each recorded value in this set is attributed to patent US11078170B2.
